# Test system: MIA PaCa-2
# test: In vitro antitumor activity against MiaPaCa-2 cell line extracted form pancreas adenocarcinoma
# Assay type: functional, cell-based
# condition: Homo sapiens
pIC50: −log10 of the molar value.
quantityName: pIC50

{"compound": "Nc1ccn(C2OC(CO)[C@@H](O)[C@H]2NO)c(=O)n1 (stereo partly specified)", "dataValue": 5.40}
